Measurement description: antivirals protecting cells from dengue CPE – CPE readout, HTS (AID 540333)
Assay setup: Dengue virus CPE inhibition in host cells, at 20 µM; hits give high values
The campaign covered roughly 10,000 compounds. About 320 (3.2%) were called active. This excerpt belongs to a sample that is enriched for actives.
Experimental readout: CPE inhibition

>  <Smiles string>
N#Cc1ccsc1NC(=O)CN1CCN(c2ccccc2O)CC1

>  <Experimental result>
inactive

$$$$
>  <Smiles string>
O=C(COC(=O)C12CC3CC(CC(C3)C1)C2)Nc1ccc([N+](=O)[O-])cc1Br

>  <Experimental result>
inactive

$$$$
>  <Smiles string>
CCCc1nc2c(c(=O)c3ccccc3n2C)c(=O)n1-c1ccc(F)cc1

>  <Experimental result>
1.89% (inactive)

$$$$
>  <Smiles string>
O=C(COC(=O)C12CC3CC(CC(C3)C1)C2)Nc1ccc([N+](=O)[O-])cc1Cl

>  <Experimental result>
1.98% (inactive)

$$$$

Request: What value of measured CPE inhibition is listed for CCCc1nc2c(c(=O)c3ccccc3n2C)c(=O)n1C1CCCCCC1 ?
Result: inactive
